Experiment: NCI Yeast Anticancer Drug Screen. Data for the mlh1 rad18 strain (AID 175)
Conditions: S. cerevisiae mlh1 rad18 strain growth inhibition, hits give high values; at 50.0 µM unless noted
The panel holds about 79,000 compounds, 15% with a hit somewhere; the sample as a whole holds those more often.
MEASURED PARAMETER: growth inhibition (%)
Use % as the unit, but write only the number.

Worked set:
{"COMPOUND": "COc1cc(OC)c(-c2nc3ccccc3c(=O)o2)cc1OC", "MEASURED PARAMETER": "growth inhibition", "OBSERVED MEASUREMENT": 7.75}
{"COMPOUND": "CC(C)(C)[Si](C)(C)OCC1OC(n2cnc3c(=O)[nH]cnc32)CC1O (stereo unspecified)", "MEASURED PARAMETER": "growth inhibition", "OBSERVED MEASUREMENT": -7.85}
{"COMPOUND": "Cc1ccc(C)c(NC(=O)c2cccc(C(=O)Nc3cc(C)ccc3C)c2)c1", "MEASURED PARAMETER": "growth inhibition", "OBSERVED MEASUREMENT": 7}
{"COMPOUND": "O=C(O)Cc1cc(=O)oc2ccccc12", "MEASURED PARAMETER": "growth inhibition", "OBSERVED MEASUREMENT": 8.75}
{"COMPOUND": "COc1ccc(/C=N/NS(=O)(=O)c2ccc(NC(C)=O)cc2)cc1", "MEASURED PARAMETER": "growth inhibition", "OBSERVED MEASUREMENT": -9.15}
{"COMPOUND": "CC(=O)Nc1nnn(C)n1", "MEASURED PARAMETER": "growth inhibition", "OBSERVED MEASUREMENT": -3.45}
{"COMPOUND": "CCC12CCCNC1c1c(n(C)c3ccccc13)C(C(=O)OC)C2 (stereo unspecified)", "MEASURED PARAMETER": "growth inhibition", "OBSERVED MEASUREMENT": -20.7}
{"COMPOUND": "O=C1CCC(=O)N1N1C(=O)CCC1=O", "MEASURED PARAMETER": "growth inhibition", "OBSERVED MEASUREMENT": 3.35}
{"COMPOUND": "O=C(c1ccccc1)C(Oc1ccccc1)c1ccccc1 (stereo unspecified)", "MEASURED PARAMETER": "growth inhibition", "OBSERVED MEASUREMENT": 60}
{"COMPOUND": "C/C=C(/I)CBr", "MEASURED PARAMETER": "growth inhibition", "OBSERVED MEASUREMENT": 21.3}

// next item, growth inhibition requested
Looking for the measured growth inhibition of `Cc1nc2c(cnn2C)c(=O)n1C(C)C` , can you help? 3.4

----------
Below is a list of entries, each paired with its recorded growth inhibition value.
Assay: NCI Yeast Anticancer Drug Screen. Data for the bub3 strain (AID 167)
Conditions: S. cerevisiae bub3 mutant strain, hits give high values; at 50.0 µM unless noted
Method: Growth inhibition of yeast strains with defined genetic alterations is measured as a screen for potential anti-cancer activity. Selected strains with alterations in DNA damage repair or cell cycle control were exposed to compounds and growth inhibition was measured relative to vehicle treated controls. The strain used in this assay is bub3
Compounds without any hit were thinned out: in the full panel of roughly 79,000, 15% have a hit.
Your answer is read as %, so omit the unit and give the number.

{"MOLECULE": "CCOc1ccccc1N=Nc1c(-c2ccccc2)nn(C(=O)CC(=O)Nc2cccc(Cl)c2)c1-c1ccccc1", "growth inhibition (%)": 26.2}

Please look up its growth inhibition: `Nc1cc(S(=O)(=O)O)cc2cc(S(=O)(=O)O)cc(S(=O)(=O)O)c12` -17.5

Entry under review: `Cc1nc2c(cc1C(=O)NN)c(=O)n(C)c(=O)n2C` . Reported growth inhibition? -8.05

Report growth inhibition for `COc1ccc(-c2oc(=O)c3ccccc3c2-c2ccccc2)cc1` please. 2.6

----------
Test: NCI Yeast Anticancer Drug Screen. Data for the rad50 strain (AID 155);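 further: 0% = growth of vehicle-only cultures of the same strain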
Details: S. cerevisiae rad50 strain growth inhibition; at 50.0 µM unless noted
Protocol: Growth inhibition of yeast strains with defined genetic alterations is measured as a screen for potential anti-cancer activity. Selected strains with alterations in DNA damage repair or cell cycle control were exposed to compounds and growth inhibition was measured relative to vehicle treated controls. The strain used in this assay is rad50
This is part of a sample that, as a whole, favours compounds with a hit. Of some 79,000 tested, about 15% had one in any assay. Active and inactive are the calls of the source. No stated cut-off is given here; in the data, active means growth inhibition above about 70%; inactive means the rest.
Reply using exactly one outcome from true = active, false = inactive

What call does the record list for `CN(C)Cc1cc(-c2c(Cl)cccc2Cl)no1` ? false

Could you kindly confirm the outcome this assay logged for `C=CCCCCCCC=C` ? false

Test call for this compound, please: `O=C(Nc1nccs1)c1ccccc1F` false

Short answer needed: outcome of this test for `C1=CC(=CN2CCc3ccccc3C2)C=C1` ? false

Could you check what this test reported for OC1(c2cccc(C(F)(F)F)c2)CCN(C2CC2c2ccccc2)CC1 (centres undefined) ? true

----------
Assay: NCI Yeast Anticancer Drug Screen. Data for the mec2-1 strain (AID 157)
Conditions: S. cerevisiae mec2-1 strain, hits give high values; at 50.0 µM unless noted
Compounds without any hit were thinned out: in the full panel of roughly 79,000, 15% have a hit.
Documented growth inhibition across a set of compounds
# value in %; strip the unit string

Requested field: growth inhibition. Item: `CC(C)N(CC(C)(C)O)C(=O)c1ccccc1` 11.7

----------
Below, each entry is listed alongside its reported growth inhibition.
Assay: NCI Yeast Anticancer Drug Screen. Data for the mlh1 rad18 strain (AID 175)
Details: S. cerevisiae mlh1 rad18 strain growth inhibition, hits give high values; at 50.0 µM unless noted
This is part of a sample that, as a whole, favours compounds with a hit. Of some 79,000 tested, about 15% had one in any assay.
Reply numerically in %, unit not repeated.

Please give the measured growth inhibition for this compound: C/C(=N/NC(N)=O)C1CCc2ccccc2C1 (stereo not drawn) 22.9

For the compound `O=c1[nH]c(-c2ccccc2)nc2nc3ccc([N+](=O)[O-])cc3[n+]([O-])c12` , what growth inhibition is on record? 7

Sample `Nc1ccccc1[N+](=O)[O-]` — what was its growth inhibition? -1.55

----------
Assay: NCI Yeast Anticancer Drug Screen. Data for the mlh1 rad18 strain (AID 175)
Settings: S. cerevisiae mlh1 rad18 strain growth inhibition, hits give high values; at 50.0 µM unless noted
About 79,000 compounds went through this panel and 15% of them were active in at least one assay; those are over-represented in the sample as a whole. The source made the active and inactive calls. No stated cut-off is given here; in the data, active means growth inhibition above about 70%; inactive means the rest.
Entries and their growth inhibition values follow.

Before answering, review these 5 worked examples.
{"COMPOUND": "C=CCN1C(=O)CS/C1=N/NC(=O)C(O)(c1ccccc1)c1ccccc1", "growth inhibition": "-4.05% (inactive)"}
{"COMPOUND": "O=C1CSC(c2cccc([N+](=O)[O-])c2)N1c1nncs1 (centres undefined)", "growth inhibition": "5.5% (inactive)"}
{"COMPOUND": "C#CCN(Cc1ccc2nc(-c3ccccc3)c(Cl)nc2c1)c1cc(OC)c(OC)c(OC)c1", "growth inhibition": "4.75% (inactive)"}
{"COMPOUND": "O=CNNc1nn2cnnc2c2ccccc12", "growth inhibition": "9.6% (inactive)"}
{"COMPOUND": "O=C(O)/C(=C/c1cccs1)c1ccc(F)cc1", "growth inhibition": "3.75% (inactive)"}

Give its growth inhibition value. Item: `COC(NC(=O)Nc1ccccc1C)(C(F)(F)F)C(F)(F)F` -12.8% (inactive)

----------
Below is a list of entries, each paired with its recorded growth inhibition value.
Test: NCI Yeast Anticancer Drug Screen. Data for the mlh1 rad18 strain (AID 175)
Conditions: S. cerevisiae mlh1 rad18 strain growth inhibition, hits give high values; at 50.0 µM unless noted
Compounds without any hit were thinned out: in the full panel of roughly 79,000, 15% have a hit.
Give a bare numeral; the unit % is implied.

Reported growth inhibition, compound `C/C(CC(=O)Nc1ccc(Cc2ccc(Br)cc2)cc1)=N/Nc1ccc([N+](=O)[O-])cc1[N+](=O)[O-]` : ____ 24.7

Quick one: growth inhibition for `O=C(Nc1ccc2c(c1)Cc1ccccc1-2)c1cccc2ccccc12` ? -5.2

Give its growth inhibition value. Item: `O=C(O)Cn1c(=O)[nH]c(=O)c2[nH]cnc21` -12

# lookup: growth inhibition of `CN(C)c1ccc(N)c(N)c1` -12.9

I am curious: what growth inhibition value has been reported for `O=S(=O)(/C(=C\c1ccccc1)c1ccccc1)c1ccccc1` ? -6.65

Requested field: growth inhibition. Item: `Cc1c(SC(Cl)(Cl)Cl)cc([N+](=O)[O-])c(N(C)C)c1[N+](=O)[O-]` 10

Endpoint output: growth inhibition of `Cc1ccc(S(=O)(=O)OC2CCN(C)CC2)cc1` . Value? 30.1

What does the data say about its growth inhibition? Entry: CC(CCCCCOC(=O)Nc1ccccc1)OC(=O)Nc1ccccc1 (centres undefined) 2.6

I have this compound here, `C=C(c1c(C)cccc1OC(C)=O)c1c(C)cccc1OC(C)=O` , and I need its recorded growth inhibition. -6.55

Look at this compound and give its reported growth inhibition. `CCOC(=O)CSCC(=O)OCC` -4.65

From: PubChem BioAssay (NCI)
